tested on: Escherichia coli TOP10; test: shrunken log2 fold change of peptide-encoding DNA abundance (4.5 h post-induction vs induction); higher = less antimicrobial activity (less host growth inhibition); settings: time post-induction: 4.5 h; library: site-saturation at positions 5, 18, 19, 20;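 note: peptides expressed intracellularly from a pBAD plasmid library in pooled LB shake-flask culture, induced with 0.3% L-arabinose, DNA abundance read by NGS, three biological replicates, DESeq2 with apeglm shrinkage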
experimental readout: shrunken log2 fold change

INSERT INTO results (input_sequence, measured) VALUES
  ('RRIRIRPPRLPRPRPRPVNGPRP', -0.0532),
  ('RRIRERPPRLPRPRPRPASCPRP', -0.211),
  ('RRIRVRPPRLPRPRPRPMVFPRP', 0.0611),
  ('RRIRMRPPRLPRPRPRPGDSPRP', 0.557),
  ('RRIRHRPPRLPRPRPRPPPLPRP', 0.651);

Parameter requested: shrunken log2 fold change. Apply to each item below.
1. RRIRYRPPRLPRPRPRPMYAPRP
2. RRIRSRPPRLPRPRPRPDMWPRP
3. RRIRKRPPRLPRPRPRPQRYPRP
4. RRIRARPPRLPRPRPRPAMGPRP
5. RRIRQRPPRLPRPRPRPLMAPRP
6. RRIRIRPPRLPRPRPRPVDTPRP
7. RRIRPRPPRLPRPRPRPNAMPRP
8. RRIRQRPPRLPRPRPRPLCFPRP

A)
[-0.0214, -0.409, 0.132, 0.505, -0.0462, -0.282, -0.324, -0.302]

Parameter requested: shrunken log2 fold change. Apply to each item below.
1. RRIRIRPPRLPRPRPRPFATPRP
2. RRIRKRPPRLPRPRPRPKMAPRP
3. RRIRCRPPRLPRPRPRPPCLPRP
4. RRIRCRPPRLPRPRPRPYAFPRP
5. RRIRGRPPRLPRPRPRPGRYPRP
6. RRIRRRPPRLPRPRPRPGEYPRP
7. RRIRHRPPRLPRPRPRPNPWPRP
8. RRIRQRPPRLPRPRPRPRAQPRP

A)
[-0.0964, 0.169, -0.199, -0.425, -0.378, 0.264, -0.248, -0.0701]

Parameter requested: shrunken log2 fold change. Apply to each item below.
1. RRIRIRPPRLPRPRPRPVEYPRP
2. RRIRYRPPRLPRPRPRPNYPPRP
3. RRIRKRPPRLPRPRPRPKLQPRP

A)
-0.116
-0.79
0.423
